B1: CPEB3 Ribozyme (parent)
chain: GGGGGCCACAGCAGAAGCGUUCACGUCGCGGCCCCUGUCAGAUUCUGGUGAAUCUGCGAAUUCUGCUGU

- Variants of: B1
- Run description: self-cleavage, relative activity (ratio to wild type); higher = more cleavage; co-transcriptional
Task for the reader: assign each of the following variants its reported self-cleavage.
No unit in the answer, please; the number alone is enough.

Task: Look up self-cleavage: G25U C29U
Result: 0.206

Task: Now the same for C9A C27A
Result: 0.798

Task: Now the same for U21G C27A
Result: 0.196

Task: Now the same for C24G C33A
Result: 0.206

Task: Now the same for C39A U49C
Result: 0.811
